These data points were gathered from PubChem BioAssay (NCI).

Measured TGI accompanies every entry in the list below.
# System: SK-MEL-28 melanoma
# METHOD: NCI tumour cell line growth inhibition, 48 h
QUANTITY NAME: TGI

* COc1ccc(C(OC(C)=O)C2C(=C(C#N)C#N)c3ccccc3C2=C(C#N)C#N)cc1 (stereo not given) | > 100 µM
* CC(C)C[C@H]1[C@@H](OCc2ccccc2)COS(=O)N1[C@H](C)c1ccccc1 (stereo not given in full) | > 100 µM
* CN(CCN(C)C(=S)NN)C(=S)NN | > 100 µM
* Cc1cn(CCCCCOC(=O)NC(CCCN=C(N)N)C(=O)O)c(=O)[nH]c1=O (stereo not given) | > 100 µM
* O=C1NC(=S)NNC12c1ccccc1-c1ccccc12 | > 10 µM
